# CONDITION_SUMMARY: in n-propanol, 318.15 K

| LINE_NOTATION | solubility (mole fraction) |
| --- | --- |
| CC1(C)O[C@@H]2[C@@H](CO[C@@]3(COS(N)(=O)=O)OC(C)(C)O[C@@H]23)O1 | 0.0591 |

====

# CONDITION_SUMMARY: in 2-ethoxyethanol, 318.15 K

| LINE_NOTATION | solubility (mole fraction) |
| --- | --- |
| CC1(C)O[C@@H]2[C@@H](CO[C@@]3(COS(N)(=O)=O)OC(C)(C)O[C@@H]23)O1 | 0.209 |

====

# CONDITION_SUMMARY: in isobutanol, 323.15 K
MEASURE_NAME: solubility (mole fraction)

| LINE_NOTATION | MEAS_VALUE |
| --- | --- |
| CC1(C)O[C@@H]2[C@@H](CO[C@@]3(COS(N)(=O)=O)OC(C)(C)O[C@@H]23)O1 | 0.0441 |
